Please go through the items and note down their z-score.
# Procedure text: modulators of S6 phosphorylation in cells, primary screen, cell-based, A549, cytoblot, luminescence, serum-stimulated (AID 1158);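 also: serum-stimulated A549 lung adenocarcinoma cells; signal is phosphorylated S6 detected by cytoblot immunostaining with HRP secondary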
# Measurement setup: A549 phospho-S6 cytoblot, 5 h, higher = more signal

Entry under review: CO[C@H]1O[C@H](CO)[C@@H](OC(=O)CCc2ccccc2)[C@H](OC(=O)c2cc3ccccc3[nH]2)[C@H]1OC(=O)c1cc2ccccc2[nH]1 . Reported z-score?
2.17

Entry under review: Cc1ccc(S[C@]2(C(=O)NCc3ccccc3)CC(=O)N(Cc3cc(C(F)(F)F)cc(C(F)(F)F)c3)[C@@H]2c2ccc(CO)cc2I)cc1 . Reported z-score?
0.209

Entry under review: CC(=O)NCCCC[C@@H]1NC(=O)[C@@H]2C[C@H](C(=O)NCCCCCCN)[C@H](c3cccc(OCCO)c3)N2C1=O . Reported z-score?
-0.42

Entry under review: O=C1O[C@H](c2ccccc2)[C@H](c2ccccc2)N2[C@H]1[C@@H](C(=O)N1CCCCCCC1)[C@]1(C(=O)Nc3ccc(C#CC4(O)CCCCCC4)cc31)[C@H]2c1ccc(O)cc1 . Reported z-score?
0.148
